System: C3H10T1/2 adipocytes
Test: Lipolysis in adipocytes treated with β-AR-agonists
Type: cell-based
Conditions: Mus musculus, C3H 10T1/2, read-out: EC50 (nM) Lipolysis
READOUT: EC50 (nM)
// return numeric value only (unit: nM, not printed)

// field: EC50; key: CC(C)NCC(O)c1ccc(O)c(O)c1 (stereo not shown) ; value = 27.1

# credit: patent US6881584B1
